- TARGET: T1, human BACE1 ECD
- T1 construct: analyte of the Octet assay (200 nM) and enzyme of the first short substrate assay; also called human BACE1 extracellular domain
- T1 sequence (single chain, as listed by the source limits assumed): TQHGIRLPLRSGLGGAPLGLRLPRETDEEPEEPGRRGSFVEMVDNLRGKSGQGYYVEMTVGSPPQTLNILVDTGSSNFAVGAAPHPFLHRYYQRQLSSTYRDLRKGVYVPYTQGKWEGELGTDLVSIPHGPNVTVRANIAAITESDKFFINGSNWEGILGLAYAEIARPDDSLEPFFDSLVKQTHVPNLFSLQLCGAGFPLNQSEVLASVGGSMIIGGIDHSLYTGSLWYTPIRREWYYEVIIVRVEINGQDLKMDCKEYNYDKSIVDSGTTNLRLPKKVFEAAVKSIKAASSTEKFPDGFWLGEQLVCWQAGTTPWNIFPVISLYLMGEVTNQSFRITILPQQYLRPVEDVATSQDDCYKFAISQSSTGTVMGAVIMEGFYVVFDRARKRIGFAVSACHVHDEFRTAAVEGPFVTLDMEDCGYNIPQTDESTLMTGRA
- ASSAY INFO: Octet, pH 7.5;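 also: antibodies captured on anti-human capture biosensor tips, dissociation followed in PBS with BSA buffer, kinetics fitted with a one-to-one binding model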
QUANTITY NAME: pKd
// field semantics: pKd = negative decimal log of concentration (mol/L)

5572 (antibody, V domains shown, anti-BACE1 IgG) VH: QVQLVQSGAEVKKPGSSVKVSCKASGGTFSSYAISWVRQAPGQGLEWMGSIIPIFGTANYAQKFQGRVTITADESTSTAYMELSSLRSEDTAVYYCARSGGTKYGMLDVWGQGTMVTVSS VL: EIVMTQSPATLSVSPGERATLSCRASQSVGSNLAWYQQKPGQAPRLLIYGASTRATGIPARFSGSGSGTEFTLTISSLQSEDFAVYYCQQLYTWPPRTFGGGTKVEIK    9.07

Exercise: I am curious: what pKd value has been reported for 5747 (antibody, V domains shown, anti-BACE1 IgG) VH: QLQLQESGPGLVKPSETLSLTCTVSGGSISSSSYYWGWIRQPPGKGLEWIGNIYYSGSTYYNPSLKSRVTISVDTSKNQFSLKLSSVTAADTAVYYCARLGHGYSYFDLWGRGTLVTVSS VL: EIVLTQSPATLSLSPGERATLSCRASQSVSSYLAWYQQKPGQAPRLLIYDASNRATGIPARFSGSGSGTDFTLTISSLEPEDFAVYYCQQVYLWPPRTFGGGTKVEIK ?
Key: 8.48

src = patent US20180057604A1
